Test system: SNB-19
METHOD DESCRIPTION: NCI tumour cell line growth inhibition, 48 h
Activity calls are given as the source filed them. Cut-off read from the data, not from the text of the source: active = GI50 up to about 1.1 µM and inactive = higher.
Field 'call' accepts active, inactive

Assay result, entry COC(=O)CNC(=O)/C=C/[C@H](O[Si](C)(C)C(C)(C)C)[C@H](/C=C/C(=O)NCC(=O)OC)O[Si](C)(C)C(C)(C)C — outcome? inactive

Assay result, entry COc1ccc(-c2cc(-c3ccco3)c(C#N)c(=S)n2C2OC(CO)C(O)C(O)C2O)cc1 (stereo not drawn) — outcome? inactive

Assay result, entry NS(=O)(=O)c1ccc(NC(=O)c2cccc3c(Nc4ccc(S(N)(=O)=O)cc4)c4ccccc4nc23)cc1 — outcome? inactive

Assay result, entry C=C(C)c1nc(Oc2ccccc2)nc(Oc2ccccc2)n1 — outcome? inactive

Assay result, entry COC(=O)CCC(C)[C@H]1CCC2C3C(C[C@H](OC(C)=O)[C@@]21C)[C@@]1(C)CCC2(C[C@H]1C[C@H]3OC(C)=O)OOC1(CCCCC1)OO2 (stereo partly drawn) — outcome? inactive

Assay result, entry CC(=O)[C@H]1CC[C@H]2[C@@H]3CCC4=CC(=O)CC[C@]4(C)[C@H]3CC[C@]12C [PROGESTERONE] — outcome? inactive

Assay result, entry Cc1ccc(S(=O)(=O)NC(=O)Nc2nnc(S(N)(=O)=O)s2)cc1 — outcome? inactive

Assay result, entry COc1ccc(-c2nc(-c3ccc(OC)cc3)n(-c3ccccc3)n2)cc1 — outcome? inactive

Assay result, entry Cc1nc2c(n1CCN(C)C)C(=O)c1ccccc1C2=O — outcome? inactive

====

Measured GI50, listed per entry for reference.
System: HCT-116
METHOD DESCRIPTION: NCI tumour cell line growth inhibition, 48 h
The source made the active and inactive calls. Cut-off read from the data, not from the text of the source: active = GI50 up to about 1.1 µM and inactive = higher.

Example molecules with recorded GI50:
C=C(C(=O)OC1C(CO)OC(OCC2CC[C@@H]3C[C@]4(OC(=O)C3=C)C(C)=CC(=O)C24)C(O)C1O)[C@@H]1CCC(CO)C2C(=O)C=C(C)[C@@]2(O)C1 (some centres undefined)    1.22 µM (inactive)
SC1=NC2=C(CSC/C2=C\c2ccccc2)C(c2ccccc2)N1 (centres undefined)    29.5 µM (inactive)
Nc1nc(N)c(-c2ccc(Cl)cc2)c(CCC(=O)Nc2cccc(C(F)(F)F)c2)n1    > 100 µM (inactive)

Please give the documented GI50 of Cc1nc2ccc(F)cc2c2c1CCN2c1ccc(Cl)cc1 4.52 µM (inactive)

Please give the documented GI50 of OCCN(CCO)CCn1cnc2c(NCc3ccccc3)ncnc21 > 100 µM (inactive)

Please give the documented GI50 of CCOC(=O)N(Cc1cccs1)c1cc(OC)c(OC)c(OC)c1 > 100 µM (inactive)

Please give the documented GI50 of C=C1CC(Cn2cc(Br)c(=O)[nH]c2=O)(c2ccc(-c3ccccc3)cc2)OC1=O (centres undefined) 0.301 µM (active)

Please give the documented GI50 of COc1ccc(C/C=C(\C)CCO)cc1 > 100 µM (inactive)

Please give the documented GI50 of CCCCC(=O)OCC(=O)[C@]1(O)Cc2c(O)c3c(c(O)c2[C@@H](OC2CC(NC(=O)C(F)(F)F)C(O)C(C)O2)C1)C(=O)c1c(OC)cccc1C3=O (some centres undefined) 0.294 µM (active)

====

Tested on: DLD-1
METHOD DESCRIPTION: NCI tumour cell line growth inhibition, 48 h
Calls of active or inactive are those of the source. Cut-off read from the data, not from the text of the source: active = GI50 up to about 1.1 µM and inactive = higher.
Field 'call' accepts active, inactive

Assay result, entry C=C(C)c1nc(Oc2ccccc2)nc(Oc2ccccc2)n1 — outcome? inactive

Assay result, entry O=C(Cl)c1cc([N+](=O)[O-])cc([N+](=O)[O-])c1 — outcome? inactive

Assay result, entry COc1c2c(c(OC)c3c(=O)cc(C/C(=N/NC(=O)C[n+]4ccccc4)C(=O)Nc4cc(C)ccc4C)oc13)OCO2 — outcome? inactive

Assay result, entry CC1CN(c2ccc(Cl)cc2)CC(C)OC(=O)O1 (stereo not given) — outcome? inactive

Assay result, entry COc1cc2c(cc1OC)C1Cc3cc(OC)c(OC)cc3C(C2)N1C — outcome? inactive

Assay result, entry CCOC(=O)C1=C(NC)OC/C1=N\NC(=O)c1ccccc1O — outcome? inactive

Assay result, entry Cc1ccc(C)c(N2C(=O)C(=O)C(c3nc4ccccc4s3)/C(=N\c3cccc4c(=O)[nH][nH]c(=O)c34)C2=O)c1 (stereo not given) — outcome? inactive

Assay result, entry CCOc1ccc(NCc2cc(OC)c(OC)c(OC)c2)cc1 — outcome? active

From: ChEMBL document CHEMBL1201862
